Conditions: 313.15 K; 101.33 kPa; Liquid; Sing-around technique in a fixed-path interferometer
Task for the reader: assign each of the following molecules its reported speed of sound.
One number for each entry, in m/s.

// solved cases for speed of sound follow
CC(C)CCl    1016.3
CC(C)(C)Cl    919.41
CCC(C)Cl (stereo not given)    1005.3
CCCCCl    1056.9

Now consider the entry below.
Data point: `CC(C)OC(C)C` ; speed of sound = 932.01

###

Experiment: refractive index (Na D-line) (dimensionless)
Details: 303.15 K; 101.33 kPa; Liquid; Standard Abbe refractometry
assay.endpoint: refractive index
Answers are plain numbers.

// solved cases for refractive index follow
CC(C)OC(C)C [diisopropyl ether]    1.36242
CC(C)(C)Cl [2-chloro-2-methylpropane]    1.37921
CCCCCl [1-chlorobutane]    1.39672
CCC(C)Cl (stereo not given) [2-chlorobutane]    1.39125

Now consider the entry below.
Data point: CC(C)CCl [1-chloro-2-methylpropane] ; refractive index = 1.39245
